Source listed as patent US12103919B2.

Target: WIZ (Homo sapiens, UniProt O95785+Q96SW2)
Construct: expressed in transfected cells
Sequence (O95785 whole entry): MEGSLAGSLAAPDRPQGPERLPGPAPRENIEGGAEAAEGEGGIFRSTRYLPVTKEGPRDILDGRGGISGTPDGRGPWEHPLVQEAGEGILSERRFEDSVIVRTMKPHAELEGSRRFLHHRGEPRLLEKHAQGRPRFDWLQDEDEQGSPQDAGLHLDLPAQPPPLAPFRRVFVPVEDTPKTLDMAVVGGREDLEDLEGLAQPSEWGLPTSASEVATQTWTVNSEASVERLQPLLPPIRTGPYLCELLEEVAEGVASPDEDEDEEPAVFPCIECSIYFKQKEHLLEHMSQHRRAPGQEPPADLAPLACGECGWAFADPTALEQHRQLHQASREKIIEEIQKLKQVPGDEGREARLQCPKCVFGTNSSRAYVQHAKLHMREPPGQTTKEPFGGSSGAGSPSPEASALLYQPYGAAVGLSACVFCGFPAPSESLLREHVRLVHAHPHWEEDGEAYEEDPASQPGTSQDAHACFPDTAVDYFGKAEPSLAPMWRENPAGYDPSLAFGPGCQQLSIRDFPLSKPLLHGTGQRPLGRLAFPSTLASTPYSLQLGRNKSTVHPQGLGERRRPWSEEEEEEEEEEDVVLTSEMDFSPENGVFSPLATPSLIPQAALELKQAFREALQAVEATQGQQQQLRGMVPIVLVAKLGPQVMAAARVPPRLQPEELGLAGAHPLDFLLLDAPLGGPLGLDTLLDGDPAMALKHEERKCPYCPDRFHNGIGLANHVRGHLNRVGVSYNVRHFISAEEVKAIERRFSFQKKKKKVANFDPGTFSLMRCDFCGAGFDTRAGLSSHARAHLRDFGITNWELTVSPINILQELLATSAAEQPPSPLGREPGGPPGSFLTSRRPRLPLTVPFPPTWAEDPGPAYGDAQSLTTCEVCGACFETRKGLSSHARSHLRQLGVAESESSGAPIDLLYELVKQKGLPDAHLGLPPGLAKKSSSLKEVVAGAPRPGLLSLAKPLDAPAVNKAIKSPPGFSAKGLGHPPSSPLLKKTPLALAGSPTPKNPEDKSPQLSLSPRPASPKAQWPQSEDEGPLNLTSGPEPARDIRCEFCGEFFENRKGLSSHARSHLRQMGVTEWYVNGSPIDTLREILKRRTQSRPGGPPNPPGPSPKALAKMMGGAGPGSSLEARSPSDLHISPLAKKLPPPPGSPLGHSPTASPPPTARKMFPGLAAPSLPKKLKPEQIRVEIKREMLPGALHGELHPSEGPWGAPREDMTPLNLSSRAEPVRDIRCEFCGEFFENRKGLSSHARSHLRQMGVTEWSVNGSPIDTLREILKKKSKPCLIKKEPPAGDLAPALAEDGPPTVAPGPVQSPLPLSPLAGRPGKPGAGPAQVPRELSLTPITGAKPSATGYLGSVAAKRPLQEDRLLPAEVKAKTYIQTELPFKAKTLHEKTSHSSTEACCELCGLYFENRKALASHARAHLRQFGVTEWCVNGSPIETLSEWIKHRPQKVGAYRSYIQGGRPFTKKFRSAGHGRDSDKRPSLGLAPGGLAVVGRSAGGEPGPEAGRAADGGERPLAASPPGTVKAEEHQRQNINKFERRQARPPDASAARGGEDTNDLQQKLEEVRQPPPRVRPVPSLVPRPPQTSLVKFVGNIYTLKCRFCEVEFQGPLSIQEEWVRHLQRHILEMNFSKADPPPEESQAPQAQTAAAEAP
Sequence (Q96SW2 whole entry): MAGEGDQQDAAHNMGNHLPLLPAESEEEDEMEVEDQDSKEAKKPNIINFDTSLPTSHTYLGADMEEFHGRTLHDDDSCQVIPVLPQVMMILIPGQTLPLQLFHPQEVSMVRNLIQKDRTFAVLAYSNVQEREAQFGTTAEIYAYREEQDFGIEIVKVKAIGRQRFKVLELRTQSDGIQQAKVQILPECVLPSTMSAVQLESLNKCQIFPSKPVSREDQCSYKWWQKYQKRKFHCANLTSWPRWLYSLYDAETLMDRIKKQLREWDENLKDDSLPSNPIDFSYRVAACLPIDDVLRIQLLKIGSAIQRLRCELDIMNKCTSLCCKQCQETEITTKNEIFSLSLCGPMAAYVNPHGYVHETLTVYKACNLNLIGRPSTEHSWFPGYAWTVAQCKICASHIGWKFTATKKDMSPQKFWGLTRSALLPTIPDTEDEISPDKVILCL
Sequence (Q16531 whole entry partner): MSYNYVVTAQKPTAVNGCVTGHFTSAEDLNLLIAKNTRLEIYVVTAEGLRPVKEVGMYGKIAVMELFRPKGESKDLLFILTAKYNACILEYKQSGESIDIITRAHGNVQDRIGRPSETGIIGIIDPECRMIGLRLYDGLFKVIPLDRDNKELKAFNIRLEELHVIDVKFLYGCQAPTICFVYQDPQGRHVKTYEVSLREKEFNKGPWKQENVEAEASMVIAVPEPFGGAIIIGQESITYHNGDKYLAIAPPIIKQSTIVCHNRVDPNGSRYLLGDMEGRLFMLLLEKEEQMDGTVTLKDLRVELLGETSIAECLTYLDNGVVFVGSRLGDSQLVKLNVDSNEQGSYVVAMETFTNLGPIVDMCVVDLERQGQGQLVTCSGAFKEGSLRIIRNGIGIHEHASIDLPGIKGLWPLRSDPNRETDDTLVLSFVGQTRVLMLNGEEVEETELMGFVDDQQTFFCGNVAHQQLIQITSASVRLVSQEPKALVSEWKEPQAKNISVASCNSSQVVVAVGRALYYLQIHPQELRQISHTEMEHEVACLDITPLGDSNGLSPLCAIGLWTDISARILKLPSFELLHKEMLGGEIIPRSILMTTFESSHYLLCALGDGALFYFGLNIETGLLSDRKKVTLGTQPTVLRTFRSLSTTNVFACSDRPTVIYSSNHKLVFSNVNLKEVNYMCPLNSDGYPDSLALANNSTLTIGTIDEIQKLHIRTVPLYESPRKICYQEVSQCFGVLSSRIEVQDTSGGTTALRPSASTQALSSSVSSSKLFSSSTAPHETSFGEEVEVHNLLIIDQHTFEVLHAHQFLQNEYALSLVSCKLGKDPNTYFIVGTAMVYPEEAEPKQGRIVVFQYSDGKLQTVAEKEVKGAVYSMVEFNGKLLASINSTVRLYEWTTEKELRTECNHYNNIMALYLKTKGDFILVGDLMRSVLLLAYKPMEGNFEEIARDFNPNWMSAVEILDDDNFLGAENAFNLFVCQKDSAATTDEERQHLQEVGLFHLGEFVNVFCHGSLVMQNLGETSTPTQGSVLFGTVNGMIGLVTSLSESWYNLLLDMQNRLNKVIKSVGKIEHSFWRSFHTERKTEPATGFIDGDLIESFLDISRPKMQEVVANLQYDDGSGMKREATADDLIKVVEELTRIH
Assay: Quantification of WIZ protein levels in HiBit tag fusion protein assay (293T cells)
Type: cell-based
Settings: HEK-293T; at 25 uM, 100 − Amax; read-out: % degradation of WIZ (100 − Amax)
Heads up, the class ranges for Dmax at 25 µM are lower band (below 40%), central band (40% to below 70%), upper band (70% or more)

A selection of reference data follows.
CC[C@H](C)N1CCC[C@@H](Oc2ccc3c(c2)CN(C2CCC(=O)NC2=O)C3=O)C1 (some centres unmarked) | upper band
CCN1CCC(C)(C)C(Oc2ccc3c(c2)CN(C2CCC(=O)NC2=O)C3=O)C1 (single isomer, unassigned) | lower band
CCO[C@@H]1C[C@@H](Oc2ccc3c(c2)CN(C2CCC(=O)NC2=O)C3=O)CN(CC(C)C)C1 (some centres unmarked) | central band
CCOC(=O)N1C[C@H](Oc2ccc3c(c2)CN(C2CCC(=O)NC2=O)C3=O)CC[C@@H]1C (some centres unmarked) | lower band
CCCN1CCC[C@@H](Oc2ccc3c(c2)CN(C2CCC(=O)NC2=O)C3=O)C1 (some centres unmarked) | central band
CC(C)N1C[C@H](Oc2ccc3c(c2)CN(C2CCC(=O)NC2=O)C3=O)CC[C@@H]1C (some centres unmarked) | upper band
CC(C)CN1CCC2(CC2)[C@@H](Oc2ccc3c(c2)CN(C2CCC(=O)NC2=O)C3=O)C1 (some centres unmarked) | central band
CC[C@@H](C)N1CCC[C@@H](Oc2ccc3c(c2)CN(C2CCC(=O)NC2=O)C3=O)C1 (some centres unmarked) | upper band
O=C1CCC(N2Cc3cc(O[C@@H]4CCCN(C5CC6(CCOCC6)C5)C4)ccc3C2=O)C(=O)N1 (some centres unmarked) | lower band
CC#CCN1CCC[C@@H](Oc2ccc3c(c2)CN(C2CCC(=O)NC2=O)C3=O)C1 (some centres unmarked) | central band

Inquiry: Which bin should I file CCN1C[C@H](C)C[C@@H](Oc2ccc3c(c2)CN(C2CCC(=O)NC2=O)C3=O)C1 (single isomer, unassigned) under?
Reply text: upper band

Inquiry: Please let me know in which category the item CCN1C[C@H]2C[C@H]2[C@@H](Oc2ccc3c(c2)CN(C2CCC(=O)NC2=O)C3=O)C1 (single isomer, unassigned) belongs.
Reply text: lower band

Inquiry: Lab log: O=C1CCC(N2Cc3cc(O[C@@H]4CCCN(CC5COC5)C4)ccc3C2=O)C(=O)N1 (some centres unmarked) — assign Dmax at 25 µM category
Reply text: lower band

Inquiry: Tag the class for CNC(=O)N1C[C@H](Oc2ccc3c(c2)CN(C2CCC(=O)NC2=O)C3=O)CC[C@@H]1C (some centres unmarked)
Reply text: lower band

Inquiry: Class? Entry: O=C1CCC(N2Cc3cc(O[C@@H]4CCCN(C5CC6(COC6)C5)C4)ccc3C2=O)C(=O)N1 (some centres unmarked)
Reply text: central band

Inquiry: Category of O=C1CCC(N2Cc3cc(O[C@@H]4CCCN(CC5CCCCC5)C4)ccc3C2=O)C(=O)N1 (some centres unmarked) , please.
Reply text: lower band
